pIC50 by entry:
biological target: T1, HLA-DRB1*0701 (human); test: competition with 125I probe peptide, purified HLA; conditions: remark: other sources report otherwise
T1 chain 1: not shown
T1 chain 2: not shown
Scale: pIC50 equals -log10([C]), with [C] in mol/L.

Solved entries:
{"binder": "TVQLVTQLMPYGCLL [Her2/neu.793]", "pIC50": 5.60}
{"binder": "GVTVWELMTFGAKPY [Her2/neu.909]", "pIC50": 5.83}

For this binder ( LSVFQNLQVIRGRIL [Her2/neu.422] ), measured pIC50 is 7.07
